Taken from paper PMC9739882.

# System: Caco-2 cells
# experiment: MTT antiproliferative assay in Caco-2 cells
# Format: cell-based, human
# experimental conditions: Homo sapiens, Caco-2; antiproliferative, MTT, 72 h, mean ± SD (n = 3); read-out: IC50 Caco-2 (72 h)
Here, each record is paired with measured IC50 data.
property name: IC50 (µM)

compound: Oc1cc(O)cc(/C=C/c2ccccc2)c1 [PINO, 3,5-dihydroxy-trans-stilbene]
observed value: 26.4
//
compound: Oc1cc(O)cc(CCc2ccccc2)c1 [DHP, 3-hydroxy-(5-phenethyl)phenol]
observed value: 73.9
//
compound: Oc1ccc(CCc2ccccc2)cc1
observed value: 56.9
//
compound: Oc1cccc(CCc2ccccc2)c1
observed value: 42.9
//
compound: Oc1cc(O)cc(/C=C/c2ccc(O)cc2O)c1 [Oxy-RSV, 3,5,2′,4′-tetrahydroxy-trans-stilbene]
observed value: 55.4
